procedureSummary: A qHTS for Small Molecule Inhibitors of Shiga Toxin; further: 0% is about no effect
settings: Vero cells, Shiga toxin protein synthesis inhibition reporter; at 38.7 µM, active compounds read high
The campaign covered roughly 290,000 compounds. About 27,000 (9.3%) were called active. The sample holds actives, similar compounds and a random draw of the others, so the mix is not that of the screen.
Exercise: state measured inhibition for each of the molecules provided.
Respond numerically; units are % and should not be typed.

Ask: So what's the measured inhibition for this one? CC(Oc1ccc(F)cc1)C(=O)N1CCN(c2ncccn2)CC1 (centres undefined)
Reply: -12.5

Ask: Okay, and O=C(COc1ccc(S(=O)(=O)Nc2cccc(C(F)(F)F)c2)cc1)N1CCOCC1 ?
Reply: -9.6

Ask: // query: O=C(Nc1ccc([N+](=O)[O-])cc1)C1CC12CCC2 (centres undefined)
Reply: 76.1

Ask: # iterate: COc1cc(CN2CCC(C(N)=O)CC2)ccc1OCc1ccccc1
Reply: 50.5

Ask: And then CCOc1ccc(NC(=O)Nc2cc(C)ccc2OC)cc1 , what is it?
Reply: 29.4

Ask: Record: COc1cc(/C=C(\C#N)c2nc3ccccc3[nH]2)ccc1O
Reply: 55.7

Ask: Cool, now CCOc1ccc2nc(C(=O)N3CCCC(C)C3)sc2c1 (centres undefined)
Reply: 129

Ask: Thanks! And CN(CCc1ccccc1)c1ccc([N+](=O)[O-])cn1 ?
Reply: -3.15

Ask: Likewise for O=C(Cc1ccccc1F)NC1CCSc2ccccc21 (centres undefined) ?
Reply: 8.44

Ask: Try this molecule next: COc1ccc(COCC(O)CN2CCC(C(N)=O)CC2)cc1 (centres undefined)
Reply: 18.1

Ask: Now consider Cc1c(C(=O)Nc2cccc(-c3nnc4n3CCCCC4)c2)oc2ccccc12 .
Reply: 35

Ask: Try Cc1c(C(=O)Nc2ccccc2)sc2nc3n(c(=O)c12)CCCCC3 next.
Reply: 95.7

Ask: Follow-up entry: O=C(COC(=O)C1CCCCC1)Nc1ccc([N+](=O)[O-])cc1
Reply: 30.9

Ask: What about this molecule? CS(=O)(=O)c1ccccc1C(=O)Nc1ccc2sccc2c1
Reply: -5.25

Ask: Next molecule up: Cc1ccc(-n2c(Cc3cccs3)nnc2SCC(=O)OC(C)C)cc1
Reply: 8.05

Ask: Further, for Cc1cc(C(=O)NC2CC(C)(C)Cc3c2cnn3-c2ccccc2)n[nH]1 (centres undefined) ?
Reply: -14.3

Ask: # iterate: Cc1ccc(CNC(=O)C2CCN(S(=O)(=O)c3ccc4nc5c(c(C(=O)O)c4c3)CC(C)CC5)CC2)cc1 (centres undefined)
Reply: 19.6

Ask: Same question, Cn1c(Cc2cccs2)nnc1SCC(=O)Nc1ccccc1 this time
Reply: -7.01

Ask: Now consider CC(NC(=O)CCCC1CCCCC1)c1ccc(S(N)(=O)=O)cc1 (centres undefined) and answer again.
Reply: -5.49

Ask: Then this molecule: COc1cc(/C=C(\C#N)c2nc3c(s2)CC(C)CC3)ccc1O (centres undefined)
Reply: 62.8

Ask: Now consider CC(C)c1ccc(Nc2ncccc2C#N)cc1 .
Reply: 52.3

Ask: Another molecule to look at: O=c1c2c(nc3n1CCCCC3)sc1c(O)cccc12
Reply: 20.9

Ask: Next molecule: CCOc1ccc2nc(Nc3nc4ccc(NC(C)=O)cc4s3)sc2c1
Reply: 50.5

Ask: Also check CCOc1cccc(-n2nnnc2-c2ccc(OC)cc2)c1
Reply: 0.378

Ask: # repeat for Cc1ccc(S(=O)(=O)/N=C(/Nc2ccccn2)c2ccc(Cl)cc2)cc1
Reply: 31.5

Ask: O=C1C2C3C=CC(C4CC34)C2C(=O)N1/N=C/c1ccc(-c2ccccc2[N+](=O)[O-])o1 (centres undefined) ?
Reply: 61.9

Ask: Further, for CCOc1ccc(C(=O)Nc2cc(OC)ccc2OC)cc1 ?
Reply: 25.5

Ask: Note, next up: COc1ccccc1C(=O)N(C1=NC(C)CS1)c1ccc(Cl)cc1 (centres undefined)
Reply: -5.01

Ask: And CCn1c(Cc2cccs2)nnc1SCC(=O)c1ccc(C)cc1 ?
Reply: 41.4

Ask: Further, for Cc1nc(N2CCN(c3ccccn3)CC2)c2c(C)c(C(=O)Nc3ccc(F)cc3)sc2n1 ?
Reply: -7.13

Ask: What would you report for O=C(Nc1cccc(Cl)c1)c1cc(S(=O)(=O)N2CCCCC2)c[nH]1 ?
Reply: -7.57

Ask: What about CCn1c(CNc2ccc(OC)cc2)nnc1SCC(=O)c1ccc(OC)cc1 ?
Reply: -15.6

Ask: Further, for Cc1ccc(CCNC(=O)c2ccc3nc4ccccc4c(=O)n3c2)cc1 ?
Reply: 5.74

Ask: Then what about the molecule Cc1ccc2sc(N(CCN(C)C)C(=O)/C=C/c3cccs3)nc2c1C ?
Reply: -3.15

Ask: Continue with CCOc1ccc(NC(=O)Nc2cc(C)on2)cc1
Reply: 91.1

Ask: Quick one: CCCNC(=O)N1CCC(c2ccc3c(c2)OCO3)CC1
Reply: -2.98

Ask: Entry C=CCn1c(CNC(=O)c2ccco2)nnc1SCC(=O)c1ccc(OC)cc1 please
Reply: -12.2

Ask: How about this molecule: Cc1cc(=O)[nH]c(Nc2cccc(Br)c2)n1
Reply: -10.8

Ask: # iterate: CN(C)c1ccnc(Nc2ccc(F)cc2)c1C#N
Reply: 7.86

Ask: Again, but for CCOc1cc(C)ccc1OCc1nnc(SCC(=O)Nc2cccc(C(=O)O)c2)n1-c1ccccc1
Reply: 9.89

Ask: Now this one: COc1ccc(-c2cc(C(=O)N3CCN(Cc4ccc5c(c4)OCO5)CC3)on2)cc1OC
Reply: -5.83

Ask: Consider next the molecule O=S(=O)(/N=C(/Nc1ccccn1)c1ccccc1)c1ccc(Cl)cc1 in the same way.
Reply: 14.8

Ask: Now the same for Cc1ccc(CNCc2ccc3c(c2)OCO3)c(C)c1
Reply: -7.85

Ask: What about this molecule? CCOc1ccccc1-c1cc(C(=O)N/N=C(\C)c2cccnc2)c2ccccc2n1
Reply: -30.4
